Values from patent US20240335569A1

Biological target: recombinant human PREP (Homo sapiens (Human))
Sequence (P48147 whole entry): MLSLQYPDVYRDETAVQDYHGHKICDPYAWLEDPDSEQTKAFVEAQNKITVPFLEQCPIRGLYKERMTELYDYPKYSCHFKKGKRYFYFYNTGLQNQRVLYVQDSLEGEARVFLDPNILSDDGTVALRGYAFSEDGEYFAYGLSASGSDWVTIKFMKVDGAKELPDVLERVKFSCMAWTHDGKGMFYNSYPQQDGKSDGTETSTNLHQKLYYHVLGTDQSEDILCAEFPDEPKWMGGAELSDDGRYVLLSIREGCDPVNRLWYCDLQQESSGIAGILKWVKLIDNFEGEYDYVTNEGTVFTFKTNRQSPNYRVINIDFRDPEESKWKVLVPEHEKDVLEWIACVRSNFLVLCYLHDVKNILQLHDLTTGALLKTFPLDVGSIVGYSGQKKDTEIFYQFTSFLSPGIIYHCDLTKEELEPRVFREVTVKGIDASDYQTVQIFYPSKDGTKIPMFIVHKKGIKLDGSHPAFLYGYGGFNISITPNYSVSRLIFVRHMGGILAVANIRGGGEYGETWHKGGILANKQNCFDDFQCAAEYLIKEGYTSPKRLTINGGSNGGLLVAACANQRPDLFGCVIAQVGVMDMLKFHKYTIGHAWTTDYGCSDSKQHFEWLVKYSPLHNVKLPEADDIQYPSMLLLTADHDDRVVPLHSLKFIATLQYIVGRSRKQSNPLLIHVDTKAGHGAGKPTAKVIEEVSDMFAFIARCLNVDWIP
Assay: PREP protease activity assay
Type: biochemical
Recorded pIC50 (PREP) for the following compounds
Property label: pIC50 (PREP)

[[record]]
compound = "N#C[C@@H]1CC(F)(F)CN1C(=O)CNC(=O)c1ccnc2c1=CC(OCCCN1CCN(C(=O)CN3CCN4CCN5CCN(CC3)CC(=O)[O][In]([O]C(=O)C5)[O]C(=O)C4)CC1)CC=2 (stereo partly drawn)"
property_label = "pIC50 (PREP)"
reported = "<6"

[[record]]
compound = "CS(=O)(=O)c1ccc(-c2ccc3nccc(C(=O)NCC(=O)N4CCC[C@H]4C#N)c3c2)cc1"
property_label = "pIC50 (PREP)"
reported = "<6"

[[record]]
compound = "O=C(NCC(=O)N1CCC[C@H]1C(=O)c1ncco1)c1ccnc2ccccc12"
property_label = "pIC50 (PREP)"
reported = 9.2


====

Target: Human recombinant FAP (Homo sapiens (Human))
Assay: Surface plasmon resonance assay (Biacore T200, SCK)
Format: binding
Conditions: SPR
Sequence (Q12884 whole entry): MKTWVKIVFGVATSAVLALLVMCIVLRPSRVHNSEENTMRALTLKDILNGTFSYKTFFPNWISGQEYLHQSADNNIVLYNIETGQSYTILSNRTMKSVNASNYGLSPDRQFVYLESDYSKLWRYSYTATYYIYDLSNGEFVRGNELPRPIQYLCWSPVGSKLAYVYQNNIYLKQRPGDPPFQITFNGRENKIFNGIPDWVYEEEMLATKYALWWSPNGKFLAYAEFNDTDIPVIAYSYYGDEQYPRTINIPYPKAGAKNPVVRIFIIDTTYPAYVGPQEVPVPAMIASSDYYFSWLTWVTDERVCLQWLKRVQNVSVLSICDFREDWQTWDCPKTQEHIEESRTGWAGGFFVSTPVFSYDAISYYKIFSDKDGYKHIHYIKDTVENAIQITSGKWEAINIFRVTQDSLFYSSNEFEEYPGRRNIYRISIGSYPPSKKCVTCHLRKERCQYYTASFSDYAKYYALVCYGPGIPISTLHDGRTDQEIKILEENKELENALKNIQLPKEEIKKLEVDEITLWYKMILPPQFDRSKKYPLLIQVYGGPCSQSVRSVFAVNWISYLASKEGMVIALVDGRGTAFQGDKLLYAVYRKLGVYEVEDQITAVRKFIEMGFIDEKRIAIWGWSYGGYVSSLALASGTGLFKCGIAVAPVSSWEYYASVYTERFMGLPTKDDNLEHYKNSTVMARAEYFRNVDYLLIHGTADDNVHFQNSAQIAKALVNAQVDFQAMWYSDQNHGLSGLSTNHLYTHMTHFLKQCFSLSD
pKD (Biacore): recorded values
Property label: pKD (Biacore)

[[record]]
compound = "O=C(O)CN1CCN(CC(=O)O)CCN(CC(=O)N2CCN(CCCOc3ccc4nccc(C(=O)NCC(=O)N5CCC[C@H]5C(=O)c5nc6ccccc6o5)c4c3)CC2)CCN(CC(=O)O)CC1"
modifier_sign = ">"
reported = 10.5

[[record]]
compound = "CS(=O)(=O)c1cccc(-c2ccc3c(C(=O)NCC(=O)N4CCC[C@H]4C#N)ccnc3c2)c1"
modifier_sign = "="
reported = 9.3

[[record]]
compound = "CC(C)(C)c1nnc(C(=O)[C@@H]2CCCN2C(=O)CNC(=O)c2ccnc3ccccc23)o1"
modifier_sign = "="
reported = 8.6

[[record]]
compound = "O=C(NCC(=O)N1CCC[C@H]1C(=O)c1ncco1)c1ccnc2ccccc12"
modifier_sign = "="
reported = 8.6

[[record]]
compound = "CS(=O)(=O)c1ccc(-c2ccc3nccc(C(=O)NCC(=O)N4CCC[C@H]4C#N)c3c2)cc1"
modifier_sign = "="
reported = 9.8

[[record]]
compound = "N#C[C@@H]1CC(F)(F)CN1C(=O)CNC(=O)c1ccnc2ccc(-c3ccc(C(=O)NCCN4CCN(C(=O)CN5CCN(CC(=O)O)CCN(CC(=O)O)CCN(CC(=O)O)CC5)CC4)cc3)cc12"
modifier_sign = ">"
reported = 10.5

[[record]]
compound = "N#C[C@@H]1CCCN1C(=O)CNC(=O)c1ccnc2ccc(-c3ccc(C(=O)NCCCNC(O)CN4CCN5CCN6CCN(CC4)CC(=O)[O][Eu]([O]C(=O)C6)[O]C(=O)C5)cc3)cc12 (some centres unmarked)"
modifier_sign = "="
reported = 10

[[record]]
compound = "CS(=O)(=O)c1cccc(-c2ccc3c(C(=O)NCC(=O)N4CC(F)(F)C[C@H]4C#N)ccnc3c2)c1"
modifier_sign = "="
reported = 10.1

[[record]]
compound = "CS(=O)(=O)c1ccc(-c2ccc3nccc(C(=O)NCC(=O)N4CC(F)(F)C[C@H]4C#N)c3c2)cc1"
modifier_sign = ">"
reported = 10.5

[[record]]
compound = "N#C[C@@H]1CC(F)(F)CN1C(=O)CNC(=O)c1ccnc2ccc(-c3ccc(C(=O)NCCCNC(O)CN4CCN5CCN6CCN(CC4)CC(=O)[O][Eu]([O]C(=O)C6)[O]C(=O)C5)cc3)cc12 (some centres unmarked)"
modifier_sign = ">"
reported = 10.5

[[record]]
compound = "O=C(NCC(=O)N1CCC[C@H]1C(=O)c1nccs1)c1ccnc2ccccc12"
modifier_sign = "="
reported = 7.9

[[record]]
compound = "N#C[C@@H]1CC(F)(F)CN1C(=O)CNC(=O)c1ccnc2ccc(OCCCN3CCN(C(=O)CN4CCN5CCN6CCN(CC4)CC(=O)[O][Lu]([O]C(=O)C6)[O]C(=O)C5)CC3)cc12"
modifier_sign = "="
reported = 10.2

[[record]]
compound = "N#C[C@@H]1CC(F)(F)CN1C(=O)CNC(=O)c1ccnc2ccc(-c3ccc(C(=O)NCCCNC(=O)CN4CCN(CC(=O)O)CCN(CC(=O)O)CCN(CC(=O)O)CC4)cc3)cc12"
modifier_sign = ">"
reported = 10.5

[[record]]
compound = "CS(=O)(=O)c1cccc(-c2ccc3nccc(C(=O)NCC(=O)N4CC(F)(F)C[C@H]4C#N)c3c2)c1"
modifier_sign = "="
reported = 10.1


====

Molecular target: HEK-FAP cells (HEK293 cells engineered to express the human FAP) (Homo sapiens (Human))
Test: LigandTracer assay with 111In-labeled compounds
Format: binding
Details: 111In-labeled compound
Property label: Kd (nM)

[[record]]
query_smiles = "O=C(O)CN1CCN(CC(=O)O)CCN(CC(=O)NCCCS(=O)(=O)c2ccc(-c3ccc4nccc(C(=O)NCC(=O)N5CCC[C@H]5C(=O)c5nc6ccccc6o5)c4c3)cc2)CCN(CC(=O)O)CC1"
property_label = "Kd"
reported = 0.0794


====

Target: Human recombinant FAP (Homo sapiens (Human))
Assay: Surface plasmon resonance assay (Biacore T200, SCK)
Format: binding
Conditions: SPR dissociation half-life
Property label: HL [min] (Biacore) (min)

[[record]]
compound = "CS(=O)(=O)c1ccc(-c2ccc3nccc(C(=O)NCC(=O)N4CC(F)(F)C[C@H]4C#N)c3c2)cc1 [Compound 3BP-3233]"
property_label = "HL [min] (Biacore)"
modifier_sign = "="
reported = 130

[[record]]
compound = "O=C(NCC(=O)N1CCC[C@H]1C(=O)c1nccs1)c1ccnc2ccccc12 [Compound 3BP-3206]"
property_label = "HL [min] (Biacore)"
modifier_sign = "="
reported = 0.3

[[record]]
compound = "N#C[C@@H]1CC(F)(F)CN1C(=O)CNC(=O)c1ccnc2ccc(-c3ccc(S(=O)(=O)CCCNC(=O)CN4CCN(CC(=O)O)CCN(CC(=O)O)CCN(CC(=O)O)CC4)cc3)cc12 [Compound 3BP-3467]"
property_label = "HL [min] (Biacore)"
modifier_sign = ">"
reported = 150

[[record]]
compound = "N#C[C@@H]1CCCN1C(=O)CNC(=O)c1ccnc2ccc(-c3ccc(C(=O)NCCCN(CC(=O)O)C(=O)CN4CCN(CC(=O)O)CCN(CC(=O)O)CCN(CC(=O)O)CC4)cc3)cc12 [Compound 3BP-3954]"
property_label = "HL [min] (Biacore)"
modifier_sign = ">"
reported = 150

[[record]]
compound = "CC(C)(C)c1nnc(C(=O)[C@@H]2CCCN2C(=O)CNC(=O)c2ccnc3ccccc23)o1 [Compound 3BP-3632]"
property_label = "HL [min] (Biacore)"
modifier_sign = "="
reported = 0.4

[[record]]
compound = "N#C[C@@H]1CC(F)(F)CN1C(=O)CNC(=O)c1ccnc2ccc(OCCCN3CCN(C(=O)CN4CCN(CC(=O)O)CCN(CC(=O)O)CCN(CC(=O)O)CC4)CC3)cc12 [Compound 3BP-2929, reference compound]"
property_label = "HL [min] (Biacore)"
modifier_sign = "="
reported = 85


====

Biological target: Human recombinant FAP (Homo sapiens (Human))
Assay: FAP protease activity assay (human), FRET-based
Assay type: biochemical
Conditions: recombinant human FAP, FRET protease activity
Description: In order to determine the inhibitory activity a FRET-based FAP protease activity assay was established. Four parameter logistic (4PL) curve fitting and pIC50 calculations were performed using ActivityBase software (IDBS).
Sequence (Q12884 26-760): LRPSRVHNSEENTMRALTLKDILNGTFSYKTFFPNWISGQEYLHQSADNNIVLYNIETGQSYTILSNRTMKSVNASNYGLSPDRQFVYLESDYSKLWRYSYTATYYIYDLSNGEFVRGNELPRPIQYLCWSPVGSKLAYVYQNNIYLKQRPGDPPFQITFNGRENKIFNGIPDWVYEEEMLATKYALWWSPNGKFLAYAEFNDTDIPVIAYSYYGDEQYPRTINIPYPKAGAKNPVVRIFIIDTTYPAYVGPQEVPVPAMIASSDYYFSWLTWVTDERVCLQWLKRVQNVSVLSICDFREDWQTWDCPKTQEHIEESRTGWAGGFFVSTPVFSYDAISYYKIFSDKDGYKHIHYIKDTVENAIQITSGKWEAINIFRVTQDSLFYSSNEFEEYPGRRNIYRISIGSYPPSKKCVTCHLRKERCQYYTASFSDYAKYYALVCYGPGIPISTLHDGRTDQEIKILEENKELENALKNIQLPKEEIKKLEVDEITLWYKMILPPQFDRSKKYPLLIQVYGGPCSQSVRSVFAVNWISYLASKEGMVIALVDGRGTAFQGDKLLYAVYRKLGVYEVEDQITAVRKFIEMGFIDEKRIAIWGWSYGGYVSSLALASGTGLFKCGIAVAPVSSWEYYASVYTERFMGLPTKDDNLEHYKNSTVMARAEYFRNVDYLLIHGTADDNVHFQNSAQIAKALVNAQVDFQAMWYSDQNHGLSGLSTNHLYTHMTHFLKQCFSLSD
Property label: pIC50 (Activity)

[[record]]
molecule = "CS(=O)(=O)c1cccc(-c2ccc3c(C(=O)NCC(=O)N4CC(F)(F)C[C@H]4C#N)ccnc3c2)c1 [Compound 3BP-3127]"
reported = 9.1

[[record]]
molecule = "O=C(NCC(=O)N1CCC[C@H]1C(=O)c1nccs1)c1ccnc2ccccc12 [Compound 3BP-3206]"
reported = 7.3

[[record]]
molecule = "Cn1ncnc1C(=O)[C@@H]1CCCN1C(=O)CNC(=O)c1ccnc2ccccc12 [Compound 3BP-3207]"
reported = 6.5

[[record]]
molecule = "CS(=O)(=O)c1cccc(-c2ccc3c(C(=O)NCC(=O)N4CCC[C@H]4C#N)ccnc3c2)c1 [Compound 3BP-3133]"
reported = 8.7


====

Target: FAP-expressing human WI-38 fibroblasts (Homo sapiens (Human))
Sequence (Q12884 whole entry): as the sequence (Q12884 whole entry) above
Assay: FACS binding assay (competitive, Cy5-labeled 3BP-2935)
Settings: WI-38 fibroblasts
Method: In order to determine binding of compounds according to the present invention to FAP-expressing cells, a competitive FACS binding assay was established. […] Cells were analyzed in an Attune NxT flow cytometer (Thermo Fisher Scientific). Median fluorescence intensities (Cy5 channel) were calculated by Attune NxT software and plotted against test compound concentrations. […]
Property label: IC50

[[record]]
query_smiles = "N#C[C@@H]1CC(F)(F)CN1C(=O)CNC(=O)c1ccnc2ccc(-c3ccc(C(=O)NCCN4CCN(C(=O)CN5CCN(CC(=O)O)CCN(CC(=O)O)CCN(CC(=O)O)CC5)CC4)nc3)cc12"
target_of_assay = "FAP-expressing human WI-38 fibroblasts (Homo sapiens (Human))"
reported = "1.26 nM"

[[record]]
query_smiles = "N#C[C@@H]1CCCN1C(=O)CNC(=O)c1ccnc2ccc(-c3ccc(C(=O)NCCCN(CC(=O)O)C(=O)CN4CCN(CC(=O)O)CCN(CC(=O)O)CCN(CC(=O)O)CC4)cc3)cc12"
target_of_assay = "FAP-expressing human WI-38 fibroblasts (Homo sapiens (Human))"
reported = "3.98 nM"

[[record]]
query_smiles = "O=C(NCC(=O)N1CCC[C@H]1C(=O)CO)c1ccnc2ccccc12"
target_of_assay = "FAP-expressing human WI-38 fibroblasts (Homo sapiens (Human))"
reported = "10 nM"

